Tested on: ATP;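 note: ATP exposure 15 min at 22 °C before imaging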
Experiment: switch fluorescence ratio, 500 uM ATP over buffer (Cy3 cluster intensity, sum of 5 cycles each) (fold (ratio)); higher = stronger signal-on switching upon ATP binding; sequences stand for … in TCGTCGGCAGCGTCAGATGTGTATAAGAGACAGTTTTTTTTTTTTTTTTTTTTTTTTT…TC
Conditions: aptamer strand: ATP DNA aptamer (quencher-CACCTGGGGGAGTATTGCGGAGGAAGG + anchor), 100 nM annealed; ATP concentration: 500 uM
Here, each record is paired with measured switch fluorescence ratio data.
Please give the numeric answer without any surrounding text.

Consider the following illustrative entries.
>>> readoutnumber("AAAGCGTGGA")
1
>>> readoutnumber("TTACGGGCTC")
0.985
>>> readoutnumber("CGGTTGAGGT")
0.999
>>> readoutnumber("CTGGGAGTGT")
0.995
>>> readoutnumber("CGTCTAGAGA")
1.02
>>> readoutnumber("AATTTGGCAG")
0.99

Using the record for ACAGAGGGAG , state its measured switch fluorescence ratio.
1.02

Using the record for TATTAAGGTT , state its measured switch fluorescence ratio.
0.978

Using the record for AAGGAGGGAG , state its measured switch fluorescence ratio.
0.992

Using the record for ACATTGGGAT , state its measured switch fluorescence ratio.
0.998

Using the record for TAGGGAGATG , state its measured switch fluorescence ratio.
0.996

Using the record for TCCTCGGGGG , state its measured switch fluorescence ratio.
0.989

Using the record for GCTGTGATA , state its measured switch fluorescence ratio.
0.976

Using the record for AGGAGTGGGG , state its measured switch fluorescence ratio.
1

Using the record for GCCGAATATG , state its measured switch fluorescence ratio.
1.01

Using the record for GTATTAATGT , state its measured switch fluorescence ratio.
1.01

Using the record for GGGGGGGGGA , state its measured switch fluorescence ratio.
1.01

Using the record for TTGCTACTGT , state its measured switch fluorescence ratio.
0.983

Using the record for AGGCCGTTCG , state its measured switch fluorescence ratio.
0.998

Using the record for TTAGTTTCTT , state its measured switch fluorescence ratio.
0.999

Using the record for GTTATAATGG , state its measured switch fluorescence ratio.
1
